# measured.target: recombinant human MMP-13 (Homo sapiens)
# assay.info: biochemical
# study.conditions: Inhibition Table B
attribute.measured: IC50

Q: Quick one: IC50 for `O=C(C1CCN(c2ccc(S(=O)(=O)C3(C(=O)NO)CCOCC3)cc2)CC1)N1CCOCC1` ?
Result: 10 nM

Q: Please report the recorded IC50 for O=C(C1CCCN(c2ccc(S(=O)(=O)C3(C(=O)NO)CCOCC3)cc2)C1)N1CCCC1 (stereo not shown) .
Result: > 100 nM

Q: Look at this compound and give its reported IC50. `CN(C)C(=O)N1CCN(c2ccc(S(=O)(=O)C3(C(=O)NO)CCOCC3)cc2)CC1`
Result: 27 nM

Q: // returns reported IC50 for input `O=C(NCc1cccnc1)C1CCN(c2ccc(S(=O)(=O)C3(C(=O)NO)CCOCC3)cc2)CC1`
Result: 10 nM

Q: Returns the measured IC50 for the input compound. Input: `N[C@H]1CCN(C(=O)C2CCN(c3ccc(S(=O)(=O)C4(C(=O)NO)CCOCC4)cc3)CC2)C1`
Result: > 100 nM

Q: Quick check: IC50 of `CN(C)[C@H]1CCN(C(=O)C2CCN(c3ccc(S(=O)(=O)C4(C(=O)NO)CCOCC4)cc3)CC2)C1` ?
Result: > 100 nM

Q: Any idea what its IC50 is? The compound is `C=CCN(CC=C)C(=O)C1CCN(c2ccc(S(=O)(=O)C3(C(=O)NO)CCOCC3)cc2)CC1`
Result: 4 nM

====

# measured.target: recombinant human MMP-1 (Homo sapiens, UniProt P03956)
# Construct: made in house; host or cells: transfected HT-1080 cells
# Sequence (P03956 100-469): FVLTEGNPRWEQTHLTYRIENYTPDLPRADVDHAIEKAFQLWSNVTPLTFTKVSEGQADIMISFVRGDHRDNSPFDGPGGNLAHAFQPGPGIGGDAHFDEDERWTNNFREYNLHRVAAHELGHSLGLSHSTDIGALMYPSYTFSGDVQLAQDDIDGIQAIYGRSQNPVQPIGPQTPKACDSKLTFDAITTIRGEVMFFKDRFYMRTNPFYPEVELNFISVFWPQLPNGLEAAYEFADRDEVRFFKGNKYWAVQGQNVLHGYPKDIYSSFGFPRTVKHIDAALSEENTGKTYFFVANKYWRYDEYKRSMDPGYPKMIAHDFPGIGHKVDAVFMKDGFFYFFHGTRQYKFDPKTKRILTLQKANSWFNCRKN
# assay.info: biochemical
# study.conditions: Inhibition Table B
pIC50: −log10 of the molar value.
attribute.measured: pIC50

Q: Reported pIC50 for `Cc1ccc(-c2ccc(S(=O)(=O)C3(C(=O)NO)CCOCC3)cc2)cc1C` : what is it?
Result: 5.96

Q: Give its pIC50 value. Item: `CN(C)C(=O)N1CCN(c2ccc(S(=O)(=O)C3(C(=O)NO)CCOCC3)cc2)CC1`
Result: < 5.00

Q: // query pIC50 value for entry CCOC(=O)C1CCCN(C(=O)C2CCN(c3ccc(S(=O)(=O)C4(C(=O)NO)CCOCC4)cc3)CC2)C1 (stereo not shown)
Result: < 5.00

Q: Entry `O=C(NCCO)C1CCN(c2ccc(S(=O)(=O)C3(C(=O)NO)CCOCC3)cc2)CC1` : reported pIC50 = ?
Result: < 5.00

====

# Test system: human monocytic line U-937
# Type: cell-based
Task for the reader: assign each of the following compounds its reported MTS Toxicity TD50.

Q: Give the measured MTS Toxicity TD50 of `O=C(NO)C1(S(=O)(=O)c2ccc(Oc3ccc(OC(F)(F)F)cc3)cc2)CCOCC1` .
Result: 100 µM

Q: Sample `O=C(NO)C1(S(=O)(=O)c2ccc(Sc3ccccc3)cc2)CCOCC1` — what was its MTS Toxicity TD50?
Result: >100 µM

Q: Recorded MTS Toxicity TD50 for `C#CCN1CCC(C(=O)NO)(S(=O)(=O)c2ccc(SC3CCCCC3)cc2)CC1.Cl` , please?
Result: >100 µM

Q: Returns the measured MTS Toxicity TD50 for the input compound. Input: `C#CCN1CCC(C(=O)NO)(S(=O)(=O)c2ccc(Oc3ccccc3)cc2)CC1.Cl`
Result: >100 µM
